Tested on: Spodoptera littoralis
test: Spodoptera littoralis (Egyptian cotton leaf worm) feeding/contact activity
Format: in vivo
appliedConditions: foliar, 72 h, application rate 200 ppm, L1 larvae on sprayed cotton leaf discs, assessed 3 days after infestation, read-out: mortality
recordedMetric: mortality at 200 ppm

Worked cases, mortality at 200 ppm given:
- compound: "Cn1nc(C(F)(F)C(F)(F)F)c(OC(F)F)c1-n1cc(-c2ccc(C(F)(F)F)c(C(=O)N(CC3CC3)C3(C#N)CC3)c2)cn1 [Compound 5]"
  mortality at 200 ppm: "≥ 80%"
- compound: "CCN(C(=O)c1cc(-c2cnn(-c3c(OC(F)F)c(C(F)(F)C(F)(F)F)nn3C)c2)ccc1C(F)(F)F)C1(C#N)CC1 [Compound 3]"
  mortality at 200 ppm: "≥ 80%"

Turning to the following compound.
Recorded mortality at 200 ppm (compound Cn1nc(C(F)(F)C(F)(F)F)c(OC(F)F)c1-n1cc(-c2ccc(C(F)(F)F)c(C(=O)NC3CC3)c2)cn1 [Compound 4] ): ≥ 80%
